SYSTEM_UNDER_TEST: Interleukin-6 (IL6) (human, UniProt P05231 30-212)
Sequence (P05231 30-212): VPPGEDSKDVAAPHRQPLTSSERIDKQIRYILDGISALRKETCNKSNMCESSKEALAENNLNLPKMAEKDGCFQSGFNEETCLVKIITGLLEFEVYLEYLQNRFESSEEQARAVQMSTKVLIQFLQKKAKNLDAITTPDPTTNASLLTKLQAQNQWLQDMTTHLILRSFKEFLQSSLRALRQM
ASSAY_COMMENT: EIS (electrochemical aptasensor); [Fe(CN)6]4- redox probe; phase shift; Hill fit, coefficient fixed at 1; Aptamer on GNR-functionalized gold electrodes, [Fe(CN)6]4- redox probe; sensing buffer, pH and temperature not given in the material (aptamer clicked in PBS 1X)
REPORTED_CONDITIONS: protein: commercial
PROPERTY_LABEL: pKd
pKd is a log-scale quantity: -log10 of the concentration expressed in molar.

Exam item: Provide only the value of recorded pKd for TTTTTTCTTCCAACGCTCGTATTGTCAGTCTTTAGT (ssDNA, 5' azide (/5AzideN/), clicked by CuAAC to alkyne graphene nanoribbons on gold electrode) [IL6 DNA aptamer (azide-modified)]
Marked response: 7.98
